pIC50 values, listed per item
- TEST SYSTEM: EGF receptor tyrosine kinase (Homo sapiens, UniProt P00533)
- Construct: Receptor tyrosine kinase was obtained in partially purified form from A431 cells; endogenous in cells
- Sequence (P00533 25-1210): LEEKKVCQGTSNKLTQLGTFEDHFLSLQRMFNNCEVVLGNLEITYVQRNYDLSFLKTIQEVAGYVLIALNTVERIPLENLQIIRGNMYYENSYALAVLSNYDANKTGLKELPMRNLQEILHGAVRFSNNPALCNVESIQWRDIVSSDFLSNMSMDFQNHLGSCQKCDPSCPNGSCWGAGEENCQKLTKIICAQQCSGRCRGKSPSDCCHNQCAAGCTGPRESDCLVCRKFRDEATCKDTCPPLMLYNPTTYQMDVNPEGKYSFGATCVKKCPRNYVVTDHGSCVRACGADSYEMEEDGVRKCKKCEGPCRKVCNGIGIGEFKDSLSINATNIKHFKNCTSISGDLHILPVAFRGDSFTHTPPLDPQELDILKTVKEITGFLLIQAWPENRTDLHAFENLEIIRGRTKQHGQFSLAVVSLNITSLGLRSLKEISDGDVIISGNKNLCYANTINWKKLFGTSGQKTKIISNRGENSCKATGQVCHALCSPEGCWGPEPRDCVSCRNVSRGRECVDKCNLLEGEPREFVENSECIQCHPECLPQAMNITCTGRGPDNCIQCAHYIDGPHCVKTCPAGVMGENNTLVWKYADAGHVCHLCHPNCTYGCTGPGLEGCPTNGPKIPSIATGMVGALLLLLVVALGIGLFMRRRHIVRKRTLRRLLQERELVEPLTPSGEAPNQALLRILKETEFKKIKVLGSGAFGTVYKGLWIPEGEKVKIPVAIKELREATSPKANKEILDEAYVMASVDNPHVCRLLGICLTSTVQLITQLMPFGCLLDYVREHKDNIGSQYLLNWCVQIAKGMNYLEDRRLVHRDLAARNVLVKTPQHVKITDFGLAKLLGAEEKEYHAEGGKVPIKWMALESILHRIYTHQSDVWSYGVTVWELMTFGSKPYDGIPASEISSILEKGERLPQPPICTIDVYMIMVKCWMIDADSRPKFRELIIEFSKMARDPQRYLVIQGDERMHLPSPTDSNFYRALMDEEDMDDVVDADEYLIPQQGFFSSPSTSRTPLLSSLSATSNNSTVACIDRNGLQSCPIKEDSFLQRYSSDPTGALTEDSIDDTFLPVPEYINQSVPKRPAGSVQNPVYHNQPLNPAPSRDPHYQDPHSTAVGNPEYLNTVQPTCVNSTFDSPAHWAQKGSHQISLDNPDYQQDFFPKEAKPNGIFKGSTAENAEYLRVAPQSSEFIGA
- MEASUREMENT NOTES: In vitro assay: ability of a test compound to inhibit the enzyme EGF receptor tyrosine kinase (Test (a))
- APPLIED CONDITIONS: EGF receptor tyrosine kinase from A431 cells; approximate values
pIC50: −log10 of the molar value.

RECORD SMILES: COCCCNc1ccc2ncnc(Nc3ccc(F)c(Cl)c3)c2c1
pIC50: 7.30
--
RECORD SMILES: COCCNc1ccc2ncnc(Nc3ccc(F)cc3F)c2c1
pIC50: 6.52
--
RECORD SMILES: COCCNc1ccc2ncnc(Nc3ccc(F)c(Cl)c3)c2c1
pIC50: 7.40
--
RECORD SMILES: COCCNc1ccc2ncnc(Nc3ccc(F)c(F)c3)c2c1
pIC50: 6.52
